molecular target: T1, Human c-Met-Flis-Fc ECD (human); assay: ELISA, coated ECD-Fc, antibody 100000.000 ng/mL
T1 construct: also called human c-Met extracellular domain (ECD)-Fc-Flis fusion; Human cMet-ECD-Fc-Flis
T1 sequence (chain, as listed by the source limits assumed): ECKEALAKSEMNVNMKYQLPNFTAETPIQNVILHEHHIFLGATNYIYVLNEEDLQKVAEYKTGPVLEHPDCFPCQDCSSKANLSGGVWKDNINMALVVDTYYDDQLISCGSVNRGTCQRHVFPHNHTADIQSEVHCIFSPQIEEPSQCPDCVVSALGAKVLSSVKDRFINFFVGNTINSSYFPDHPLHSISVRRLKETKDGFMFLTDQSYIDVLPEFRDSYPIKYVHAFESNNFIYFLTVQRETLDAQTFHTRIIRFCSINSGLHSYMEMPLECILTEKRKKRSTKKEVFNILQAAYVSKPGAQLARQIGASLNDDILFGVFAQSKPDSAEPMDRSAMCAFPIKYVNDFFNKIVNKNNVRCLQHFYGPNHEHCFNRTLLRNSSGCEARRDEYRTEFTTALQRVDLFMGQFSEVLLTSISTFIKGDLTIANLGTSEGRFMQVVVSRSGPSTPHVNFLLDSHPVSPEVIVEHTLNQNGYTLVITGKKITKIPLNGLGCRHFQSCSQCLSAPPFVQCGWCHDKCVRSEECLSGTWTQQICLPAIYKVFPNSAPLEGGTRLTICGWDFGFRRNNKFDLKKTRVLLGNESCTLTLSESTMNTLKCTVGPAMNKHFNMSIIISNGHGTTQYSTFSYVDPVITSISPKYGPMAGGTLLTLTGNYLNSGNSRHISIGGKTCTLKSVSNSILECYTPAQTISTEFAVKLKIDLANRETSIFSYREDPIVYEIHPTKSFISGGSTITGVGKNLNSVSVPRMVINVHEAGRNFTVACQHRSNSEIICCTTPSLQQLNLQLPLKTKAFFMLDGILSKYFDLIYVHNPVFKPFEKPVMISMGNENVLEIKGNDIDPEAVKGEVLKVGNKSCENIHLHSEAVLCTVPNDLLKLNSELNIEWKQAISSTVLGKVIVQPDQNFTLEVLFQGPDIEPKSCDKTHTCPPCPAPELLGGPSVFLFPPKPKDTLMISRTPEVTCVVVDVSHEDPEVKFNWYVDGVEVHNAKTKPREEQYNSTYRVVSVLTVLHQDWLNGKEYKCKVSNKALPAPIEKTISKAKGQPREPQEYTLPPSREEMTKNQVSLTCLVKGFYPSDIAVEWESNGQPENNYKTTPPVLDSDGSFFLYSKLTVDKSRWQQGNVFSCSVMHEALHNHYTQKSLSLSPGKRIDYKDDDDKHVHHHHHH
observable: Average A450 nm (A450 nm)
Numeric only. Scale: A450 nm

1. C8-H241 (antibody, human IgG2, kappa, V domains shown, Called IgG4, kappa; also called Mab C8-H241) VH: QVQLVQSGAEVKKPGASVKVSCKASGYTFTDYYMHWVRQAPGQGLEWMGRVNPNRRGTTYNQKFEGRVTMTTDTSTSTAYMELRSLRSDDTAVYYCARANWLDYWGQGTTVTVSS VL: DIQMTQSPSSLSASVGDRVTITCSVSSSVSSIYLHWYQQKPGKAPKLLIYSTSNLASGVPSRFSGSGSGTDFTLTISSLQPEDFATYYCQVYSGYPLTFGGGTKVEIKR = 4

Okay, next one:
Request: What Average A450 nm value was documented for this binder, C8-co-16 (antibody, human IgG2, kappa, V domains shown, Called IgG4, kappa) VH: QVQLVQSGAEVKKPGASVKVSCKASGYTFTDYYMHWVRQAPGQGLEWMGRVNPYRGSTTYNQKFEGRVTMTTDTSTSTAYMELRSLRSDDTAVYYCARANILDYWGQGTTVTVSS VL: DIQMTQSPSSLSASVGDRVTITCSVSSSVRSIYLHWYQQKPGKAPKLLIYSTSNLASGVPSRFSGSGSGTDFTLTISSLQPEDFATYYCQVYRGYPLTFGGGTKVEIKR ?
Result: 4
